All figures here come from ChEMBL document CHEMBL3988442.

tested-target: Tyrosyl-tRNA synthetase, putative (Trypanosoma cruzi (strain CL Brener)) (UniProt Q4DSP6)
Sequence (Q4DSP6 as listed by the source): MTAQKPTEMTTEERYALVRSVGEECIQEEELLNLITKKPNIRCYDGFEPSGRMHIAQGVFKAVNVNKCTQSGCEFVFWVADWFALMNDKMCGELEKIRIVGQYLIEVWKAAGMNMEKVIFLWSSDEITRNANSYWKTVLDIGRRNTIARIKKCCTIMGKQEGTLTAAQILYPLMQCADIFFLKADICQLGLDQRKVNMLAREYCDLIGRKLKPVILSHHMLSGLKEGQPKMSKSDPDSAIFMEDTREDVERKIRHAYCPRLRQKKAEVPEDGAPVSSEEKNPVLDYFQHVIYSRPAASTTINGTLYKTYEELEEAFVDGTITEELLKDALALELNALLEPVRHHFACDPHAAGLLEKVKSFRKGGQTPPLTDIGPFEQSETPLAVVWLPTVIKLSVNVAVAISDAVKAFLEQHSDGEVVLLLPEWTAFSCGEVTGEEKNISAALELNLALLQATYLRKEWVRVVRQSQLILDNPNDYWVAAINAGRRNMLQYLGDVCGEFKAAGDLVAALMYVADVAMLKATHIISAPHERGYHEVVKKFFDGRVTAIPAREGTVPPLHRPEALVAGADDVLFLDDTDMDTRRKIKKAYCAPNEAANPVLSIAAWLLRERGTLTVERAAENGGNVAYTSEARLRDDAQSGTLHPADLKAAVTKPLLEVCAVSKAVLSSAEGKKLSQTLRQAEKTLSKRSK
procedure-text: Trypanosoma cruzi tyrosyl tRNA synthetase (TcYRS) SOP
Type: functional
Parameters: scale not given: direction of the effect not stated beside the values
settings: 30 µM
property-measured: Percent Effect (%)
Dear colleague, please return just the value in %, with no unit written.

Look up Percent Effect: COC(=O)c1ccc(N2CCN(CCC(=O)NC(N)=O)C(C)C2)cc1 (configuration not stated)
13.6

Look up Percent Effect: CC1(C)Cc2ccccc2-c2nc(NCCO)[nH]c(=O)c21
13

Look up Percent Effect: COc1cc(CNCc2c(C)nn(C)c2N(C)C)ccc1C
1.24

Look up Percent Effect: Cc1ncc2c(n1)CN(Cc1nnc(-c3occc3C)o1)CC2
30.5

Look up Percent Effect: O=C(NCCOc1ccc2c(c1)OCO2)N1CCC1
16.5

Look up Percent Effect: Cc1noc(C)c1CN1CCc2nn(C(C)C)c(=O)cc2C1
16.1

Look up Percent Effect: CN1CCC(Cc2cc(Nc3ncccn3)ncn2)CC1
9.09

Look up Percent Effect: Cc1cc(=O)n(CC(=O)NCC2CCCO2)c(-c2ccc(F)cc2)n1 (configuration not stated)
-3.7

Look up Percent Effect: CCCNC(=O)c1ccc(NC(=O)c2cccc(OCC)c2)cc1
2.44

Look up Percent Effect: COc1ncccc1NC(=O)C1CCN(S(C)(=O)=O)CC1
21.9

Look up Percent Effect: CC(C)(C(=O)NCC1CC1)c1ccccc1F
2.56

Look up Percent Effect: CC(C)CCCNC(=O)Nc1ccc(F)c(C(N)=O)c1
30.6

====

tested-target: Sialic acid-binding Ig-like lectin 9 (Homo sapiens) (UniProt Q9Y336)
Sequence (Q9Y336 whole entry): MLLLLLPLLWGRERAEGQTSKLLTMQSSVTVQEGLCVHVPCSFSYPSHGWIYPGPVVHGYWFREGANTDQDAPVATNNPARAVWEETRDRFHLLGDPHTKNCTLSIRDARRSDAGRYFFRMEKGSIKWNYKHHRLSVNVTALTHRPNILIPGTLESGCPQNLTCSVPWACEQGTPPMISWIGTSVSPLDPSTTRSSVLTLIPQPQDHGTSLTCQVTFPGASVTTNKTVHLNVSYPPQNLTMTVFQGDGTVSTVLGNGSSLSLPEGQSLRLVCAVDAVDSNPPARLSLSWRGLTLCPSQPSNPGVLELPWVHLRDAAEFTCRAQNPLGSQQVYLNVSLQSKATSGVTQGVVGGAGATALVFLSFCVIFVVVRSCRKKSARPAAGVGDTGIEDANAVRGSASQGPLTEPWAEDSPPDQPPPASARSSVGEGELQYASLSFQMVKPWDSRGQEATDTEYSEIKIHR
procedure-text: Hs-Siglec9 ALPHAscreen SOP 20170721
Set-up: scale not given: direction of the effect not stated beside the values
settings: 10 µM
property-measured: Percent Effect (%)
Dear colleague, please return just the value in %, with no unit written.

Look up Percent Effect: CN(Cc1cccc(F)c1)C(=O)CN1CCOC(Cn2cccn2)C1 (centres undefined)
7.99

Look up Percent Effect: O=C1NCCN(CC2CC2)C12CCN(Cc1ccc3c(c1)OCO3)CC2
3.24

Look up Percent Effect: Cc1nn(CC(=O)N2CCN(c3ccccc3F)CC2)c(C)c1Cl
2.9

Look up Percent Effect: COc1ncccc1CNc1cc(N2CCCC2CO)ncn1 (centres undefined)
5.75

Look up Percent Effect: COC[C@@H]1CC[C@H]2[C@H](CCN2S(=O)(=O)c2ccc(OC)cc2)O1
2.46

Look up Percent Effect: NC(=O)c1ccc2c(c1)nc1n2CCN(Cc2ccccc2)C1
5.68

Look up Percent Effect: CN1CCOC(CNCc2coc(-c3cccs3)n2)C1 (centres undefined)
-13.1

Look up Percent Effect: c1ccc(-n2ccnc2)c(CNCC2CNc3ccnn3C2)c1 (centres undefined)
12.2

Look up Percent Effect: CC(C)NC(=O)N1C[C@H]2C[C@H](C(=O)NCc3ccccc3)[C@@H](C1)O2
-0.747

Look up Percent Effect: Cc1nc(CN2CCC(N(C)Cc3noc(C4CC4)n3)C2)oc1C (centres undefined)
0.312

Look up Percent Effect: Cc1cc(C2CCCN2Cc2cc(=O)n(C)c(=O)n2C)on1 (centres undefined)
1.58

Look up Percent Effect: COCCN1CCN(Cc2cccc(C(=O)N(C)C)c2)CC1C (centres undefined)
-4.75

Look up Percent Effect: Cn1cnnc1C1CCCN(C(=O)c2ccccc2Cl)C1 (centres undefined)
-3.37

Look up Percent Effect: O=C(NCCN1CCCCC1)c1scnc1Cl
-5.01

Look up Percent Effect: Fc1cccnc1OC[C@@]12CCO[C@@H]1CCN(CC1CCOCC1)C2
22.7

Look up Percent Effect: Cn1cnc2c1C(COCc1cccnc1)N(Cc1ccccn1)CC2 (centres undefined)
2.61

Look up Percent Effect: O=C(c1ccncc1)N1C[C@@H]2CC[C@H](C1)N(C(=O)N1CCOCC1)C2
3.79

Look up Percent Effect: Cc1cnc2n1CCN(C)C21CCN(C(=O)CC(C)C)CC1
1.76

Look up Percent Effect: CCOCC(O)CN1CCN(C(=O)c2cccnc2OC)CC1 (centres undefined)
3.65

Look up Percent Effect: O=C(Nc1cccnc1)[C@H]1C[C@@H]2CN(C(=O)NC3CCCC3)C[C@H]1O2
-10.3

Look up Percent Effect: Cc1cccnc1C(=O)N1CCCCC1c1[nH]ncc1S(C)(=O)=O (centres undefined)
0.367

Look up Percent Effect: Cn1cccc1C(=O)NCc1cnc2n1CCN(C(=O)N1CCCC1)C2
4.39

Look up Percent Effect: O=C(CO)N1C[C@H]2CC[C@@H]1CN(C1Cc3ccccc3C1)C2
-1.59

Look up Percent Effect: Cc1csc(N2CCCN(C(=O)C(C(C)C)n3cncn3)CC2)n1 (centres undefined)
-3.98
